Provide the reported IC50 of each item.
Target: UniProt:P34949
Sequence (P34949 whole entry): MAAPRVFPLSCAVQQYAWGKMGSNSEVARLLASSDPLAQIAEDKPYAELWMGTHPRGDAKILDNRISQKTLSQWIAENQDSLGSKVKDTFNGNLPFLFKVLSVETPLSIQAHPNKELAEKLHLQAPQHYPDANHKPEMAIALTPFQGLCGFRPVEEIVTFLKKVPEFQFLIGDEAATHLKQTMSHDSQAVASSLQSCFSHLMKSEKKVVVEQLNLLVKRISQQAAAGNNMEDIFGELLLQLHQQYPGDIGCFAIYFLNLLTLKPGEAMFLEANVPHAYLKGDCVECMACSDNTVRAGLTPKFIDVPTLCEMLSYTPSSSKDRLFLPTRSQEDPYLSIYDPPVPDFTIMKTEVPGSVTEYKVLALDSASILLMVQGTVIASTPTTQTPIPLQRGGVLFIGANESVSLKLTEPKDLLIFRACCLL
Assay: PMI enzyme inhibitors, confirmation, biochemical, fluorescence intensity (AID 1535)
The source made the active and inactive calls.

// returns reported IC50 for input `Cc1nnc(/N=c2\ssnc2Cl)o1`
1.07 µM (active)

Record: `COc1cc(N=c2ssnc2Cl)cc(OC)c1`
17.2 µM (active)

Record: `Cc1cccc(-n2sc3ccccc3c2=O)c1`
5.29 µM (active)

Record: `Cc1cccc(-n2sc3cc(F)ccc3c2=O)c1C`
22.7 µM (active)

Record: `Cc1c(Cl)cccc1-n1sc2cc([N+](=O)[O-])cc(OCC(F)(F)F)c2c1=O`
3.03 µM (active)

----------
molecular target: Calpain-2 catalytic subunit (Sus scrofa, UniProt P43367); assay: pig calpain II inhibitor potency, dose response, biochemical, fluorogenic peptide substrate (AID 1420); type: functional
Sequence (P43367 whole entry): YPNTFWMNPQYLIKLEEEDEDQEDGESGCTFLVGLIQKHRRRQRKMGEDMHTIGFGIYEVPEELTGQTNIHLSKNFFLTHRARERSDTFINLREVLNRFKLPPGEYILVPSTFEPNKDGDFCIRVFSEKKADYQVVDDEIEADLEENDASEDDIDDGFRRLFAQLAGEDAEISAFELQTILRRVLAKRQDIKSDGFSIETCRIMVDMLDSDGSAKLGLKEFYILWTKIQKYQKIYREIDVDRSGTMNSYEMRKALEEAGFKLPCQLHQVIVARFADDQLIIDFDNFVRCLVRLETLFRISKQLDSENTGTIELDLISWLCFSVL
Activity calls are given as the source filed them.
ATTRIBUTE MEASURED: IC50

// returns reported IC50 for input `O=c1c(C(c2ccc([N+](=O)[O-])cc2)c2c(O)oc3ccccc3c2=O)c(O)oc2ccccc12`
7.83 µM (active)

Record: `Cc1cccc(NC(=O)c2cc3c(=O)n4ccccc4nc3n(CC(C)C)c2=N)c1`
> 50 µM (not active)

Record: `CCOC(=O)Cn1c(=O)cc(C)c2cccc(C)c21`
< 0.4 µM (not active)

Record: `C#CCSc1nnc(-c2sc3ccccc3c2Cl)o1`
> 50 µM (not active)

Record: `Cc1cccc(NC(=O)CSc2nnc(CNC(=O)c3cccs3)o2)c1C`
7.44 µM (not active)

Record: `S=C(Nc1ccccc1Oc1ccccc1)Nc1cccc(Cl)c1Cl`
12.7 µM (not active)

Record: `Cn1c(=O)n(C)c2cc(S(=O)(=O)N3CCCc4ccccc43)ccc21`
7.05 µM (not active)

----------
assay: inhibitors of SNCA 5'UTR-driven reporter translation, confirmation, H4 neuroglioma cells, luminescence (AID 1988); type: functional, cell-based
The source made the active and inactive calls.
ATTRIBUTE MEASURED: EC50

// returns reported EC50 for input `CC(=O)Nc1ccc(NC(=O)CN(c2ccc(C(C)C)cc2)S(=O)(=O)c2ccccc2)cc1`
> 120 µM (not active)

Record: `CCCCN(CC)S(=O)(=O)c1ccc(C(=O)Nc2nnc(-c3ccccc3Cl)o2)cc1`
10 µM (active)

Record: `COc1ccc(-c2nn(-c3ccccc3)cc2/C=N/NC(=S)NC(C)C)cc1OC`
48.4 µM (active)

Record: `COC(=O)c1nn(-c2ccc3c(c2)CCN3C(C)=O)cc1O`
1.78 µM (active)
